# EXPERIMENTAL TARGET: human NEP (Homo sapiens)
# Construct: 1182-ZN
# METHOD SUMMARY: In vitro enzyme inhibition assay, inhibitor potency at human NEP
# CONDITION LABEL: pKi values at human NEP; recombinant human NEP, fluorogenic peptide substrate 10 μM, 37° C.
pKi: −log10 of the molar value.
This listing pairs molecules with measured pKi.

Consider the worked cases shown below.
{"columns": ["SMILES NOTATION", "PARAMETER", "OBSERVED MEASUREMENT"],
 "data": [
  ["O=C(N[C@H](Cc1ccccc1Cl)[C@@H](O)C(=O)O)c1cncc(-c2ccccc2C(=O)O)c1", "pKi", "8.00 to 8.90"],
  ["O=C(N[C@H](Cc1ccccc1Cl)[C@@H](O)C(=O)O)c1cc(-c2ccccc2Cl)on1", "pKi", "8.00 to 8.90"],
  ["CCc1nc2c(Cl)cc(C(=O)N[C@H](Cc3ccccc3)[C@@H](O)C(=O)O)cc2[nH]1", "pKi", "7.00 to 7.90"]
]}

Fill in the blank: the reported pKi of O=C(N[C@H](Cc1ccccc1Cl)[C@@H](O)C(=O)O)c1cnc2nn[nH]c2c1 is ____. 8.00 to 8.90

Fill blank: measured pKi of the molecule O=C(O)c1ccc(C(=O)N[C@H](Cc2ccccc2Cl)[C@@H](O)C(=O)O)o1 is ____. 7.00 to 7.90

// query pKi value for entry O=C(N[C@H](Cc1ccccc1Cl)[C@@H](O)C(=O)O)c1ccnc(-c2ccccc2C(=O)O)c1 ≥ 9.00

// query pKi value for entry O=C(N[C@H](Cc1ccccc1Cl)[C@@H](O)C(=O)O)c1nn(Cc2ccc(Cl)cc2F)c(=O)[nH]1 7.00 to 7.90

Could you tell me which pKi is on file for O=C(N[C@H](Cc1ccccc1Cl)[C@@H](O)C(=O)O)c1ccc2ncc(Br)n2c1 ? 7.00 to 7.90

* * *

# EXPERIMENTAL TARGET: human NEP (Homo sapiens)
# Construct: 1182-ZN
# METHOD SUMMARY: In vitro enzyme inhibition assay, inhibitor potency at human NEP
# CONDITION LABEL: pKi values at human NEP; recombinant human NEP, fluorogenic peptide substrate 10 μM, 37° C.
PARAMETER: Ki

In the examples that follow, each entry is paired with its recorded Ki.
{"columns": ["COMPOUND", "OBSERVED MEASUREMENT"],
 "data": [
  ["CCCc1nc2c(C)cc(C(=O)N[C@H](Cc3ccccc3)[C@@H](O)C(=O)O)cc2n1Cc1ccccc1OC", "12.6 to 100 nM"],
  ["O=C(N[C@H](Cc1ccccc1)[C@@H](O)C(=O)O)c1ccc2c(c1)N1CCCC1C(=O)N2 (stereo partly shown)", "12.6 to 100 nM"],
  ["CCCc1nc2c(C)cc(C(=O)N[C@H](Cc3ccccc3)[C@@H](O)C(=O)O)cc2n1Cc1ccc(OC)cc1", "12.6 to 100 nM"],
  ["O=C(N[C@H](Cc1ccccc1)[C@@H](O)C(=O)O)c1ccc(-c2ccccc2C(=O)O)nc1", "1.26 to 10 nM"],
  ["Cc1cc(-c2ccccc2C(=O)O)cc(C(=O)N[C@H](Cc2ccccc2Cl)[C@@H](O)C(=O)O)n1", "≤ 1 nM"],
  ["O=C(O)c1ccc(C(=O)N[C@H](Cc2ccccc2)[C@@H](O)C(=O)O)s1", "1.26 to 10 nM"],
  ["O=C(N[C@H](Cc1ccccc1Cl)[C@@H](O)C(=O)O)c1cc2n(n1)CCOc1ccccc1-2", "1.26 to 10 nM"],
  ["O=C(N[C@H](Cc1ccccc1Cl)[C@@H](O)C(=O)O)c1cn(Cc2ccccc2)nn1", "12.6 to 100 nM"],
  ["O=C(N[C@H](Cc1ccccc1Cl)[C@H](O)C(=O)O)c1cnn[nH]1", "12.6 to 100 nM"],
  ["O=C(N[C@H](Cc1ccccc1Cl)[C@H](O)C(=O)O)c1cc(Cl)c2nn[nH]c2c1", "1.26 to 10 nM"]
]}

Give its Ki value. Item: CCCc1nc2c(C)cc(C(=O)N[C@H](Cc3ccccc3)[C@@H](O)C(=O)O)cc2n1Cc1cccnc1 12.6 to 100 nM

Endpoint output: Ki of O=C(N[C@H](Cc1ccccc1Cl)[C@@H](O)C(=O)O)c1cnc(O)nc1 . Value? ≤ 1 nM

Reported Ki for O=C(O)C[C@@H](Cc1ccccc1Cl)NC(=O)c1cc(Cl)c2nn[nH]c2c1 : what is it? 12.6 to 100 nM

Entry O=C(N[C@H](Cc1ccccc1Cl)[C@@H](O)C(=O)O)c1cc(O)no1 : reported Ki = ? 1.26 to 10 nM

Which Ki is reported for this compound? CCCc1nc2c(C)cc(C(=O)N[C@H](Cc3ccccc3)[C@@H](O)C(=O)O)cc2n1CC(N)=O 12.6 to 100 nM

I have this compound here, O=C(N[C@H](Cc1ccccc1Cl)[C@@H](O)C(=O)O)c1cnc(O)c(-c2ccccc2C(=O)O)c1 , and I need its recorded Ki. ≤ 1 nM

* * *

# EXPERIMENTAL TARGET: human NEP (Homo sapiens)
# Construct: 1182-ZN
# METHOD SUMMARY: In vitro enzyme inhibition assay, inhibitor potency at human NEP
# CONDITION LABEL: pKi values at human NEP; recombinant human NEP, fluorogenic peptide substrate 10 μM, 37° C.
PARAMETER: Ki

Here is how some compounds turned out for Ki.
{"columns": ["COMPOUND", "Ki"],
 "data": [
  ["O=C(N[C@H](Cc1ccccc1Cl)[C@@H](O)C(=O)O)c1cc(-c2cccc(Cl)c2)no1 [Example 2-13]", "1.26 to 10 nM"],
  ["O=C(N[C@H](Cc1ccccc1Cl)[C@@H](O)C(=O)O)c1cc(=O)n(Cc2ccc(Cl)cc2F)o1 [Example 2-16]", "1.26 to 10 nM"],
  ["Cc1cc(C(=O)N[C@H](Cc2ccccc2Cl)[C@H](O)C(=O)O)cc2[nH]nnc12 [Example 2-30]", "12.6 to 100 nM"],
  ["O=C(N[C@H](Cc1ccccc1Cl)[C@H](O)C(=O)O)c1ccc2nn[nH]c2c1 [Example 2-29]", "12.6 to 100 nM"],
  ["O=C(N[C@H](Cc1ccccc1)[C@@H](O)C(=O)O)c1ccc2nn[nH]c2c1 [Example 5-11]", "12.6 to 100 nM"]
]}

Need Ki of O=C(N[C@H](Cc1ccccc1)[C@@H](O)C(=O)O)c1cnc2nn[nH]c2c1 [Example 5-29] , thanks. 12.6 to 100 nM

# input compound: O=C(N[C@H](Cc1ccccc1Cl)[C@@H](O)C(=O)O)c1cc(-c2ccccc2Cl)no1 [Example 2-12] ; wanted: its Ki 1.26 to 10 nM

Can you share its Ki? I mean this compound: CCCc1nc2c(C)cc(C(=O)N[C@H](Cc3ccccc3)[C@@H](O)C(=O)O)cc2n1Cc1ccc(Br)nc1 [Example 5-2] 12.6 to 100 nM

# get_value(readout='Ki', item= O=C(N[C@H](Cc1ccccc1)[C@@H](O)C(=O)O)c1cncc(-c2ccccc2C(=O)O)c1 [Example 5-25] ) 1.26 to 10 nM

I would be grateful if you could share the reported Ki for Cc1cc(C(=O)N[C@H](Cc2ccccc2Cl)[C@@H](O)C(=O)O)cc(-c2ccccc2C(=O)O)n1 [Example 2-4] . 1.26 to 10 nM

I have this compound here, O=C(N[C@H](Cc1ccccc1Cl)[C@@H](O)C(=O)O)c1cnc(-c2ccccc2)o1 [Example 2-18] , and I need its recorded Ki. 12.6 to 100 nM

What value of measured Ki is listed for O=C(N[C@H](Cc1ccccc1)[C@@H](O)C(=O)O)c1ccc(C(=O)O)nc1 [Example 5-20] ? 12.6 to 100 nM

Endpoint output: Ki of Cc1cc(C(=O)N[C@@H](CC(=O)O)Cc2ccccc2Cl)cc2[nH]nnc12 [Example 7-2] . Value? 12.6 to 100 nM

What value of Ki has been reported for the following compound? Cc1cc(C(=O)N[C@H](Cc2ccccc2)[C@@H](O)C(=O)O)cc2[nH]nnc12 [Example 5-15] 12.6 to 100 nM

GET /values?readout=Ki&item= O=C(N[C@H](Cc1ccccc1Cl)[C@@H](O)C(=O)O)c1cn(O)nn1 [Example 2-21] 12.6 to 100 nM

# query: Ki of entry O=C(N[C@H](Cc1ccccc1Cl)[C@@H](O)C(=O)O)c1cc(C(=O)O)c2[nH]nnc2c1 [Example 2-31] 12.6 to 100 nM

* * *

Recorded Ki, one value per entry.
# EXPERIMENTAL TARGET: human NEP (Homo sapiens, UniProt P08473)
# Construct: 1182-ZN
# Sequence (P08473 whole entry): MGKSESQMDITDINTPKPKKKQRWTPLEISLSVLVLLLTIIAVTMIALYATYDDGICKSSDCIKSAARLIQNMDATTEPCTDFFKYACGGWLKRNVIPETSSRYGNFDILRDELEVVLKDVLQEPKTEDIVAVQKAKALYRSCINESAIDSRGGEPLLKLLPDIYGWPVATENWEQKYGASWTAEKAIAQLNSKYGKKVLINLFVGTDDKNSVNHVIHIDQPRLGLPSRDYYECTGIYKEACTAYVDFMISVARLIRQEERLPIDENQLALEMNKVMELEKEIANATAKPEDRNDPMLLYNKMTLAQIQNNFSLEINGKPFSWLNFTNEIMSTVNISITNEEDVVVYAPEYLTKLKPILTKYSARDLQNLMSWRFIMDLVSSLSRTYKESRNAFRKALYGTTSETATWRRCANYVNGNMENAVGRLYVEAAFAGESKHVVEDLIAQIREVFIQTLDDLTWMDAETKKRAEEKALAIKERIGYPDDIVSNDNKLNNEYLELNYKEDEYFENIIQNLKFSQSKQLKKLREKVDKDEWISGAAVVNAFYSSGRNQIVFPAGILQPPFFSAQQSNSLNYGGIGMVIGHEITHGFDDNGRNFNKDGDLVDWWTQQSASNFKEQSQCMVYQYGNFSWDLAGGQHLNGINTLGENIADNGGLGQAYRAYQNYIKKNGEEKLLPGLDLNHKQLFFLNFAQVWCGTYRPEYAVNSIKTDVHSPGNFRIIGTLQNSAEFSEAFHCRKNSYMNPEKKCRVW
# METHOD SUMMARY: In vitro enzyme inhibition assay, inhibitor potency at human NEP
# CONDITION LABEL: pKi values at human NEP; recombinant human NEP, fluorogenic peptide substrate 10 μM, 37° C.

Answered cases to consult:
{"columns": ["SMILES NOTATION", "Ki"],
 "data": [
  ["O=C(N[C@H](Cc1ccccc1Cl)[C@@H](O)C(=O)O)c1cc2n(n1)COc1ccccc1-2", "1.26 to 10 nM"],
  ["O=C(N[C@H](Cc1ccccc1)[C@@H](O)C(=O)O)c1ccc(-c2ccccc2C(=O)O)cn1", "12.6 to 100 nM"],
  ["O=C(O)C[C@@H](Cc1ccccc1Cl)NC(=O)c1cc(F)c2[nH]nnc2c1", "12.6 to 100 nM"],
  ["O=C1CCC(C(=O)N[C@H](Cc2ccccc2Cl)[C@@H](O)C(=O)O)=NN1", "12.6 to 100 nM"],
  ["Cc1nc(C(=O)N[C@H](Cc2ccccc2Cl)[C@@H](O)C(=O)O)nn1-c1ccc(Cl)cc1", "12.6 to 100 nM"]
]}

I have this compound here, O=C(O)C[C@@H](Cc1ccccc1Cl)NC(=O)c1ccc(-c2ccccc2C(=O)O)nn1 , and I need its recorded Ki. 12.6 to 100 nM

Entry O=C(O)C[C@@H](Cc1ccccc1Cl)NC(=O)c1cnn[nH]1 has what Ki? 12.6 to 100 nM

Bench note: what Ki did O=C(N[C@H](Cc1ccccc1)[C@@H](O)C(=O)O)c1cc2cccn2cn1 show? 12.6 to 100 nM

Value lookup for Ki; key = O=C(O)C[C@@H](Cc1ccccc1Cl)NC(=O)c1cnc(O)nc1 1.26 to 10 nM

Form field: reported Ki of O=C(N[C@H](Cc1ccccc1Cl)[C@@H](O)C(=O)O)c1cnc2[nH]cnc2c1 12.6 to 100 nM

Any idea what its Ki is? The compound is COc1ccc(Cn2oc(C(=O)N[C@H](Cc3ccccc3Cl)[C@@H](O)C(=O)O)cc2=O)c(F)c1F 1.26 to 10 nM

Requested field: Ki. Item: O=C(O)c1cnc(C(=O)N[C@H](Cc2ccccc2)[C@@H](O)C(=O)O)cn1 12.6 to 100 nM

What does the data say about its Ki? Entry: O=C(N[C@H](Cc1ccccc1Cl)[C@@H](O)C(=O)O)c1cc(-c2ccc(Cl)cc2)no1 1.26 to 10 nM

Item under review: O=C(N[C@H](Cc1ccccc1)[C@@H](O)C(=O)O)c1cc(Cl)c2nn[nH]c2c1 . Reported Ki? 12.6 to 100 nM

If you can, please state the reported Ki value of O=C(N[C@H](Cc1ccccc1Cl)[C@@H](O)C(=O)O)c1cnc(-c2ccccc2C(=O)O)c(Cl)c1 . 1.26 to 10 nM

Consider the compound shown here: O=C(N[C@H](Cc1ccccc1Cl)[C@@H](O)C(=O)O)c1ccc(-c2ccccc2C(=O)O)nc1 What is its recorded Ki? 1.26 to 10 nM
